Molecular target: Neu5Ac(a2-6)Gal(b1-4)GlcNAc(b1-3)Gal(b1-4)GlcNAc(b1-2)Man(a1-3)[Neu5Ac(a2-6)Gal(b1-4)GlcNAc(b1-3)Gal(b1-4)GlcNAc(b1-2)Man(a1-6)]GalNAc
Assay: glycan array binding signal (z-score within array); higher = stronger binding
Details: glycan notation: IUPAC condensed, linker removed
The full list was thinned out, with the strongest signals kept by preference.
ENDPOINT_NAME: glycan array binding signal (z-score)
Numbers only.

HPA (Helix pomatia), Q2F1K8 (protein) MQAFYSGLLLLCVVAFAAAQRVQSGKIDCGNDAGWAKVPSDDPGRDNTRELAKNITFASPYCRPPVVLLSITQLDVEQSQNLRVIARLYSVSPTGFKASCYTWHNTKVYSMSISWISIENY: 0.201
Nictaba (Nicotiana tabacum), Q94EW1 (protein) MQGQWIAARDLSITWVDNPQYWTWKTVDPNIEVAELRRVAWLDIYGKIETKNLIRKTSYAVYLVFKLTDNPRELERATASLRFVNEVAEGAGIEGTTVFISKKKKLPGELGRFPHLRSDGWLEIKLGEFFNNLGEDGEVEMRLMEINDKTWKSGIIVKGFDIRPN: 1.27

Next:
# glycan array binding signal (z-score) (binder: LecRKVI.2 (protein) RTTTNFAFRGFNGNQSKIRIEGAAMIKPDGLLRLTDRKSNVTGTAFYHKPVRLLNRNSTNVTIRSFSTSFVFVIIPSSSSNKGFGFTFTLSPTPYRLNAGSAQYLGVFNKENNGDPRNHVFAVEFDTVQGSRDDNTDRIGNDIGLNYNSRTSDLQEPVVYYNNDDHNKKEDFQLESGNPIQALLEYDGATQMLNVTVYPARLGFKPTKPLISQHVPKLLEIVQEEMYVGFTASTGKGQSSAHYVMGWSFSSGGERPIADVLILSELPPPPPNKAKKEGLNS ) is 3.81
